Origin of measurements: PubChem BioAssay (NCATS)

Examples of compounds with documented remaining parasite growth % (stronger effect = lower value) follow.
assay: qHTS profiling for inhibitors of Plasmodium falciparum (3D7) proliferation (AID 743322);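 further: infected erythrocytes exposed to compound for 72 h before lysis; 100% = DMSO vehicle wells and 0% = 0.29 µM artemisinin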; details: P. falciparum 3D7 proliferation; at 28.7 µM (top of the series)
Write the quantity with the unit trailing the number.

1) C[C@H]1Cc2c([nH]c3cc(Cl)c(F)cc23)[C@@]2(N1)C(=O)Nc1ccc(Cl)cc12	-1.02%

Q: Looking for the measured remaining parasite growth % (stronger effect = lower value) of `O=C(OCc1ccccc1)N1CCN(C(=O)[C@H](Cc2ccc(O[S+](=O)([O-])c3cccc4cnccc34)cc2)N[S+](=O)([O-])c2cccc3cnccc23)CC1` , can you help?
Result: -0.959%

Q: Follow-up entry: `O=C([C@H](Cc1ccc(OS(=O)(=O)c2ccccn2)cc1)NS(=O)(=O)c1ccccn1)N1CCN(c2ccccc2)CC1`
Result: 49.4%

Q: And `C[C@@H]1Cc2c([nH]c3cc(Cl)c(F)cc23)[C@]2(N1)C(=O)Nc1ccc(Cl)cc12` ?
Result: -0.966%
